Where do the numbers come from? From ChEMBL document CHEMBL3399927.

- TARGET DESC: Cell division cycle 7-related protein kinase (Homo sapiens) (UniProt O00311)
- Sequence (O00311 whole entry, looked up): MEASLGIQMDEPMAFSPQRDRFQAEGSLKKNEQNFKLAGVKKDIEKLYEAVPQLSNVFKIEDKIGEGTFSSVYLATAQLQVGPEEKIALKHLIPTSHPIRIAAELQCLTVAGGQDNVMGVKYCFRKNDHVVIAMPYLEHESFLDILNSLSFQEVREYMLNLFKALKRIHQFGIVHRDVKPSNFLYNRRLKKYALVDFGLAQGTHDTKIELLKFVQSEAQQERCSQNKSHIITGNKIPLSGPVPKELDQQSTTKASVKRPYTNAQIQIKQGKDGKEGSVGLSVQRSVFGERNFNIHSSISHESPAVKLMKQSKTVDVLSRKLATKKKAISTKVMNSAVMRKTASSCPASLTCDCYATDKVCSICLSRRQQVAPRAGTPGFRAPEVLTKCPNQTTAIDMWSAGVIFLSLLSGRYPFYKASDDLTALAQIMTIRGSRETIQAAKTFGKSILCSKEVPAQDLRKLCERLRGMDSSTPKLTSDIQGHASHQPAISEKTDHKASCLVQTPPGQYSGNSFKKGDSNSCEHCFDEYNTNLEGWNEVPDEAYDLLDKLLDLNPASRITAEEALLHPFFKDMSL
OUTCOME MEASURE: pIC50
Answers are plain numbers, as −log10 of the molar value.

Problem: Using the record for `N#Cc1ccc2c(-c3cc4cc(CN5CCOCC5)ccc4[nH]3)n[nH]c2c1` , report its pIC50.
Result: 7.96

----------
- METHOD: Apparent permeability across apical to basolateral side in MDCK cells by HPLC
- Type: ADME, cell-based, Canis lupus familiaris
- RECORDED CONDITIONS: dog
Give measured Papp A→B for each item. Keep answers brief.
One number for each entry, in ×10⁻⁶ cm/s.

Known Papp A→B results, listed for orientation:
CN(C(=O)c1ccccc1)c1ccc2[nH]c(-c3n[nH]c4ccccc34)cc2n1 2.07
CN(C(=O)Nc1ccccc1)c1ccc2[nH]c(-c3n[nH]c4ccccc34)cc2n1 6.07

Problem: Using the record for `CN(C(=O)c1ccc(Cl)cc1)c1ccc2[nH]c(-c3n[nH]c4ccccc34)cc2n1` , report its Papp A→B.
Result: 3.95
